- test-summary: NCI Yeast Anticancer Drug Screen. Data for the rad50 strain (AID 155);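 note: 0% = growth of vehicle-only cultures of the same strain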
- condition-parameters: S. cerevisiae rad50 strain growth inhibition; at 50.0 µM; hits give high values
The panel holds about 79,000 compounds, 15% with a hit somewhere; the sample as a whole holds those more often.
result-type: growth inhibition (%)
State the answer as a number, implicitly in %.

COC(c1ccccc1)(c1ccccc1)c1cc(NS(=O)(=O)c2ccccc2)ccc1NS(=O)(=O)c1ccccc1 = 14.2

I would be grateful if you could share the reported growth inhibition for CC(C)(C)C1CC/C(=N\Nc2ccc([N+](=O)[O-])cc2[N+](=O)[O-])C(Cc2ccccc2)C1 (stereo not given) .
11.9

Can you handle CC1(C)CC(C2CC(C)(C)CC(C)(C)[C@H]2O)[C@@H](O)C(C)(C)C1 (stereo not given in full) next?
-17.3

Next entry: NC(=O)O/N=C/c1ccccn1
-12.1

Proceed to CCNc1ncnc2c1cnn2C
0.45

---

Recorded growth inhibition by entry
- test-summary: NCI Yeast Anticancer Drug Screen. Data for the mlh1 rad18 strain (AID 175)
- condition-parameters: S. cerevisiae mlh1 rad18 strain growth inhibition; at 50.0 µM; hits give high values
About 79,000 compounds went through this panel and 15% of them were active in at least one assay; those are over-represented in the sample as a whole.
Report the figure in % without appending any unit label.

Some entries whose results are on file:
CC(C)(C#N)CCCCC(N)=O = -10.7
O=C(O)CCSc1nc2c(=O)[nH][nH]c(=O)c2n1Cc1ccccc1 = 9.7
N#CCCSc1nnc(N)s1 = -14.8
NS(=O)(=O)c1ccc(NC2(C(=O)O)CCCC2)cc1 = -21.5
CC(NC(=O)c1ccccc1)C(=O)O (centres undefined) = 27.7
COc1ccc(C2SC(N)=Nc3c2c(C)nn3C(=O)c2ccccc2O)cc1 (centres undefined) = 29.4

So what's the measured growth inhibition for this one? CC(C)(C(=Nc1ccc([N+](=O)[O-])cc1)N1CCOCC1)c1ccccc1
22.6

Here is the next compound: Cc1cccc(C)c1NC(=O)C(=O)CC(=O)CO
-6.25

Also check O=C1OC([C@H](O)c2cccnc2)c2ccccc21 (some centres undefined)
-21.6

---

- test-summary: NCI Yeast Anticancer Drug Screen. Data for the mec2-1 strain (AID 157)
- condition-parameters: S. cerevisiae mec2-1 strain, at 50.0 µM, hits give high values
This is part of a sample that, as a whole, favours compounds with a hit. Of some 79,000 tested, about 15% had one in any assay.
Could you label it YES if measured growth inhibition is -10% or higher, and NO otherwise?

State whether the measured growth inhibition reaches -10%, counting equality as reaching it, for CCCCCCCCCCCCCCCCCC[N+](C)(C)Cc1c(Cl)c(Cl)c(Cl)c(Cl)c1Cl
YES

Consider next the compound CCCC(=O)c1ccc(O)cc1 in the same way.
YES

Also O=[N+]([O-])c1ccc(S(=O)(=O)Nc2ccccc2-c2ccccc2)cc1 ?
YES

And what about the compound OC(c1ccccc1)c1c(-c2ccccc2)[nH]c(-c2ccccc2)c1C(O)c1ccccc1 (configuration not stated) ?
YES

Same thing, different compound: Cc1cccc(C(O)c2ccccn2)c1O (configuration not stated)
YES

Also need CCN(CC)CCC1CCNCC1 , thanks.
NO

Could you do the same for CC(=O)OCC1OC(n2c3c(cc(C#N)c2=S)CCCCCC3)C(OC(C)=O)C(OC(C)=O)C1OC(C)=O (configuration not stated) , please?
YES

Try COc1ccc2ncc(COC(=O)Nc3ccccc3)c(COC(=O)Nc3ccccc3)c2c1 next.
YES

// same read-out, input: COCC12CCC(OC)C34C5CC6(O)C(OC)CC(OC(C)=O)(C5C6OC(=O)c5ccccc5)C(C(OC)C13)C4N(C)C2 (configuration not stated)
NO

Now try CCOC(=O)CC1=Nc2ccccc2SC1 .
NO

Now try O=C1/C(=C/c2ccco2)N=C2Sc3c(nc[nH]c3=O)N12 .
NO

Another compound to look at: CCN(CC)Cc1cc(C(C)(C)CC)cc(-c2ccccc2)c1O
NO

---

- test-summary: NCI Yeast Anticancer Drug Screen. Data for the sgs1 mgt1 strain (AID 161);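 note: 0% = growth of cultures given vehicle only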
- condition-parameters: S. cerevisiae sgs1 mgt1 strain, at 50.0 µM, hits give high values
- Experimental: Growth inhibition of yeast strains with defined genetic alterations is measured as a screen for potential anti-cancer activity. Selected strains with alterations in DNA damage repair or cell cycle control were exposed to compounds and growth inhibition was measured relative to vehicle treated controls. The strain used in this assay is sgs1 mgt1
About 79,000 compounds went through this panel and 15% of them were active in at least one assay; those are over-represented in the sample as a whole.
result-type: growth inhibition (%)
# output: bare number, implied unit %

CCN(CC)CC(O)Cn1cnc2c(=S)nc[nH]c21 (stereo not given) = -3.45
CC(C)N(C(=O)C1C2CCC(CC2)C1C(=O)N(C(C)C)C(C)C)C(C)C (stereo not given) = 11.3
COc1cccc(N2C(Cl)C(=O)C2c2c[nH]c3ccccc23)c1 (stereo not given) = -47.6
O=C(O)CCC(=O)NNc1nc2ccccc2s1 = 29.1

Proceeding to the next compound to report its growth inhibition.
For the compound CSc1nc(C)c(Br)c(=O)n1C1OC(COC(C)=O)C(OC(C)=O)C(OC(C)=O)C1OC(C)=O (stereo not given) , what growth inhibition is on record?
-13.1

---

- test-summary: NCI Yeast Anticancer Drug Screen. Data for the mlh1 rad18 strain (AID 175)
- condition-parameters: S. cerevisiae mlh1 rad18 strain growth inhibition; at 50.0 µM; hits give high values
This is part of a sample that, as a whole, favours compounds with a hit. Of some 79,000 tested, about 15% had one in any assay.
result-type: growth inhibition (%)
Numeric only. Scale: %

CS/C(=N\S(=O)(=O)c1cc(C)c(Cl)cc1Cl)NNc1cnc2ccccc2n1 = 1.7

Query: growth inhibition; subject: CCC(C)(C(=O)O)c1ccccc1 (stereo not drawn)
15.7

And what about the molecule Cc1ccc(S(=O)(=O)Nc2ccccc2C(=O)c2ccc(C)c(C)c2)cc1 ?
23.9

---

- test-summary: NCI Yeast Anticancer Drug Screen. Data for the mec2-1 strain (AID 157)
- condition-parameters: S. cerevisiae mec2-1 strain, at 50.0 µM, hits give high values
About 79,000 compounds went through this panel and 15% of them were active in at least one assay; those are over-represented in the sample as a whole.
Measured growth inhibition values are reported for all entries that follow.
The figure you give is taken to be in %; do not add the unit.

CCc1ccccc1NC(=O)C1=C(C)NC(C)=C(C(=O)Nc2ccccc2CC)C1c1cccc([N+](=O)[O-])c1 = 52
O=C(O)c1c(CN2CCOCC2)c(O)c(O)c(O)c1CN1CCOCC1 = 0.15
Cc1cc(=O)[nH]c2ccc(Cc3ccc(Cl)cc3)cc12 = 1.75
N=C(N)n1[nH]c2c(c1=O)CCCC2 = 6.75

Please report the recorded growth inhibition for CCOC(=O)Nc1cccc(F)c1 .
14.7

Input Nc1n[nH]c(=S)s1
-12.1

// repeat for Cc1cc(O)c2c(c1)C(=O)C=CC2=O and report
5.2

And what about the molecule CCc1nc(N)nc(C(=O)NCCNC(=O)c2nc(N)nc(CC)c2C)c1C ?
-14.2

Can you check CCSCC(C)C(=O)OC (centres undefined) next?
-0.4

---

Below, each entry is listed with its recorded growth inhibition.
- test-summary: NCI Yeast Anticancer Drug Screen. Data for the mlh1 rad18 strain (AID 175)
- condition-parameters: S. cerevisiae mlh1 rad18 strain growth inhibition; at 50.0 µM; hits give high values
The panel holds about 79,000 compounds, 15% with a hit somewhere; the sample as a whole holds those more often.
Hi! Could you send only the number? It should be in %, unit omitted.

These solved cases illustrate the format of a correct answer.
CN(Cc1ccccc1)c1ccccn1 = 8.85
COc1cc(C(c2cc3c(cc2O)OCO3)n2ccnc2)cc(OC)c1OC (stereo not drawn) = 13.1

For the compound Cn1c(=O)n(CCn2c(=O)n(C)c3ccccc32)c2ccccc21 , what growth inhibition is on record?
-3.8

What do you get for CCOC(=O)N1CN(C(=O)OCC)CN(C(=O)OCC)C1 ?
-5.45

Similarly, CCC[CH2][Ge]([Cl])([Cl])[CH2]CCC ?
33.4

---

- test-summary: NCI Yeast Anticancer Drug Screen. Data for the sgs1 mgt1 strain (AID 161);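 note: 0% = growth of cultures given vehicle only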
- condition-parameters: S. cerevisiae sgs1 mgt1 strain, at 50.0 µM, hits give high values
- Method: Growth inhibition of yeast strains with defined genetic alterations is measured as a screen for potential anti-cancer activity. Selected strains with alterations in DNA damage repair or cell cycle control were exposed to compounds and growth inhibition was measured relative to vehicle treated controls. The strain used in this assay is sgs1 mgt1
About 79,000 compounds went through this panel and 15% of them were active in at least one assay; those are over-represented in the sample as a whole.
result-type: growth inhibition (%)
Answer format: numeric, % implied, no suffix.

Some solved entries appear below for comparison.
CC1(c2ccncc2)NC(=O)NC1=O (stereo unspecified) = 10.3
CC(=O)[OH+]c1c(I)cc(I)cc1C(=O)[O-].CC(=O)[OH+]c1c(I)cc(I)cc1C(=O)[O-].[Cu+2] = -5.8
COc1ccc(/C=C2\CCCC(C(NO)c3ccc(OC)cc3)C2=NO)cc1 (stereo unspecified) = 26.8
C(=C\c1ccc2ccccc2c1)/c1ccc2ccccc2c1 = 16.6
CC(C)(C)C1CCC(O)(CSc2ccccc2)CC1 (stereo unspecified) = -1.75

Pending compound:
// returns reported growth inhibition for input S=C1Cc2c(-c3ccc(Br)cc3)cc(-c3ccccc3)nc2-c2ccccc2N1
23.4
